Assay: yeast display, Sf9 membrane polyspecificity reagent, FACS + sequencing; frameworks hold sequencing errors
ASSAY_ENDPOINT: polyreactivity (PSR sort gate)

{"columns": ["SEQUENCE_RECORD", "RESULT"],
 "data": [
  ["QVQLVESGGGLVQAGGSLRLSCAASGLTFYRYAMGWYRQAPWKERDFVAAINRNGGSTYYADSVKGRFTISRDNAKNTVYLEMNSLKPEDTAVYYCNARVSGTRSGRVLRDYWGQGTQVTVSS", "high polyreactivity"],
  ["QVQLVESGGGLVQAGGSLRLSCAASGIILDRNAMGWYRQAPGKERELVAAINSIGGSTYYADSVKGRFTISRDNAKKTVYLQMNSLKPEDTAVYYCAAPSTSSYYWGQGTQVTVSS", "low polyreactivity"],
  ["QVQLVESGGGLVQAGGSLRLSCAASGFTFGVYAMGWYRQAPGKERELVAAITSGGGRTYADSVKGRFTISRDNAKNTVYLQMNSLKPEDSAVYYCAAQQGISNGTGVSATNPMDYWGQGTQVTVSS", "low polyreactivity"],
  ["QVQLVESGGGLVQAGGSLRLSCAASGRTFQYNAMGWYRQAPGKERELVAAISWSGGSTYYADSVKGRFTISRDNAKNTVYLQMNSLKPEDTAVYYCNARTLFKWRHGHYYAYDYWGQGTQVTVSS", "high polyreactivity"],
  ["HVQLVESGGGLVQAGGSLRLSCAASGSIFADNAMGWYRQAPGNERELVAAISRTGGSTYYADSVKGRFTISRDNAKNTVYLQMNSLKPEDTAVYYCAADNGYGRYRRYYYWGQGTQVTVSS", "high polyreactivity"]
]}

====

Test: yeast display, Sf9 membrane polyspecificity reagent, FACS + sequencing; frameworks hold sequencing errors
ASSAY_ENDPOINT: polyreactivity (PSR sort gate)

{"columns": ["SEQUENCE_RECORD", "ASSAY_ENDPOINT", "RESULT"],
 "data": [
  ["QVQLVESGGGLVQAGGSLRLSCAASGRIFPDNAMGWYRQAPGKERELVASITSGASTNYADSVKGRFTISRDNAKNTVYLQMNSLKPEDTAVYYCAAVTYAQYRRFDYWGQGTQVTVSS", "polyreactivity (PSR sort gate)", "high polyreactivity"],
  ["QVQLVESGGGLVQAGGSLRLSCAASGFIFRSYAMGWYRQAPGKERELVAGISYRGGSTYYADSVKGRFTISRDNAKNTVYLQMNSLKPEDTAVYYCAATAWYNWYFGLDYWGQGTQVTVSS", "polyreactivity (PSR sort gate)", "high polyreactivity"],
  ["QVQLVESGGGLVQAGGSLRLSCAASGSTFPVYVMGWYRQAPGKERELVAAITRIGGSTYYADSVKGRFTISRDNAKNTVYLQMNSLKPEDTAVYYCAAGGTARDDSWGQGTQVTVSS", "polyreactivity (PSR sort gate)", "low polyreactivity"],
  ["QVQLVESGGGLVQAGGSLRLSCAASGGTFSKNAMGWYRQAPGKEREFVAAISSTGGDTTYYADSVKGRFTISRDNAKNTVYLQMNSLKPEDTAVYYCNADYIFWPWYDYWGQGTQVTVSS", "polyreactivity (PSR sort gate)", "low polyreactivity"],
  ["QVQLVDSGGGLVQAGGSLRLSCADSGRTFWGYGKGWYRQATGKERELVATISSGGSTYYADSVKGRFTISRDNAKNTVYLQMNSLKPEDTAVYYCAARPPPTYWRYQSDYWGQGTQVTVSS", "polyreactivity (PSR sort gate)", "high polyreactivity"]
]}

====

Experiment: yeast display, Sf9 membrane polyspecificity reagent, FACS + sequencing; frameworks hold sequencing errors

{"columns": ["SEQUENCE_RECORD", "polyreactivity (PSR sort gate)"],
 "data": [
  ["QVQLVESGGGLVQAGGSLRLSCAASGRTFGFYTMGWYRQAPGKERELVAGISRGGSTTYADSVKGRFTISRDNAKNTVYLQMNSLKPEDTAVYYCNADRSHYWLPYGVRFDYWGQGTQVTVSS", "low polyreactivity"],
  ["QVQLVESGGCLVQAGGSLRLSCAASGFIFCGNARGGYIPAPGKERELVAVITRSGGSTYADSVKGRFTISRDNAKNTVYLQMNSLKPEVTAVYYCAADQQTWWQYSLINEYDYWGQGTQVTVSS", "low polyreactivity"],
  ["QVQLVESGGGLVQAGGSLRLSCAASGSTFGYNAMGWYRQAPGKERELVAAITRSGGSTDYADSVKGRFTISRDNAKNTVYLQMNSLKPEDTAVYYCAADGDHPWWSQYDYWGQGTQVTVSS", "low polyreactivity"],
  ["QVQLVESGGGLVQAGGSLRLSCAASGRTFSVNDMGWYRQAPGKERELVAAISFSGGSTYYADSVKGRFTISRDNAKNTVYLQMNSLKPEDTAVYYCAARVRWWSPGGYWGQGTQVTVSS", "high polyreactivity"],
  ["QVQLVESGGGLVQAGGTLSLSCAASGGTFSTNTMGWYRQATGKERELVAAITEGTGNTYYADSVKGRFTISRDNAKNTVYLQMNSLKPEDTAVYYCATAYAVYHVEYGYWGQGTQVTVSS", "low polyreactivity"],
  ["QVQLVESGGGLVQAGGSLRLSCAASGFTFKRNGMGWYRQAPGKERELVAAISSSGGNTYYADSVKGRFTISRDNAKNTVYLQMNSLKPEDTAVYDCAAASRYFDRDYWGQGTQVTVSS", "high polyreactivity"],
  ["QVQLVESGVGLVQAGGRLRLSCAASGSIFYYYAMGWYRQAPGKERELVAAISGTGGSTYYADSVKGRFTISRDNAKITFYLQMNSLKPEDTAVYYCAASFYIERHRYIYWGQGTQVTVSS", "high polyreactivity"],
  ["QVQLVESGGGLVQAGGSLRLSCAASGSTFHYAMGWYRPAPGKERELVAAITYGGGRTFYADSVKGRFTISRDNAKNTVYLQMNSLKPEDTAVYYCAKVVYYYGRGWTDYRSTMDSWGQGTQVTVSS", "low polyreactivity"],
  ["QVQLVESGGRLVQAGGSLRLSCAASGFIFDSYAMGWYRQAPGKERELVAAISWSGGRTYYADSVKGRFTISRDNAKNTVYLQMNSLKPEDTAVYYCNVRTKLSTSYDYWGQGTQVTVSS", "high polyreactivity"],
  ["QVQLVESGGGLVQAGRSLRLSCAASGSTLQNNGMGWYRQAPGKERELVAAISIGGDTNYADSVKGRFTISRDNAKNTEMNSMKPEDTAGYYCNTDYFGSQVVVIFDFWGQGTQVTVSS", "low polyreactivity"],
  ["QVQLGESGGGLVQAGGSLRLSCAASGRTFDKNAMGWYRQAPGKERELVATISSGGSTYYADSVKGRFTISRDNAKNTVYLQMNSLKPEDTAVYYCNARGVRATRRRYGYWGQGTQVTVSS", "low polyreactivity"]
]}

====

Experiment: yeast display, Sf9 membrane polyspecificity reagent, FACS + sequencing; frameworks hold sequencing errors
ASSAY_ENDPOINT: polyreactivity (PSR sort gate)

{"columns": ["SEQUENCE_RECORD", "ASSAY_ENDPOINT", "RESULT"],
 "data": [
  ["QVQLVESGGGLVQAGGSLRLSCAASGRTFRSYAMGWYRQAPGKERELVAAISSGGSTNYADSVKGRFTISRDNAKNTVYLQMNSLKPEDTAVYYCNKVVHSFRFPYRYDMDYWGQGTQVTVSS", "polyreactivity (PSR sort gate)", "high polyreactivity"],
  ["QVQLVESGGGLVQAGGSLRLSCAASGSTLWYYAMGWYRQAPGKERELVADITSSGNTNYADSVKGRFTISRDNAKNTVYLQMNSLKPEDTAVYYCAADSANYQWYLSWQKDDYWGQGTQVTVSS", "polyreactivity (PSR sort gate)", "low polyreactivity"],
  ["QVQLVESGGGLVQAGGSLRLSCAASGFTFGGNDMGWYRQAPGKERELVAAISWSGGSTYYADSVKGRFTISRDNAKNTVYLLMNSLKPEDTAVYYCAADYYYGKVHFDYWGQGTQVTVSS", "polyreactivity (PSR sort gate)", "low polyreactivity"],
  ["QVQLVESGGGLVHAGGSLRLSCAASGSTVSYYAMGWYRQAPGKERELVAAISTRGSSTYYADSVKGRFTISRDNAKNTVYFQMNSLKPEDTAVYYCAVDQYKYDWFYDYYGYTYGYWGQGTQVTVSS", "polyreactivity (PSR sort gate)", "high polyreactivity"],
  ["QVQLQVSGGDLVQAGGSLRLSCAASGTIYGLTSMGWYRQAPGKEREFVAAITDGGNTNYADSVKGRFTISRDNAKNSVYLQMISLTPEDTAVYYCALLFSDEAYYAYCGQGTQVTVSS", "polyreactivity (PSR sort gate)", "low polyreactivity"],
  ["QVQLVESGGGLVQAGGSLRLSCSASGFIFYLYTMGWYRQAPGKERELVAAITKSGTRTYYADSVKGRFTISRDNAKNTVYLQMNSLKPEDTAVYYCAAEWGSSYRWGMDYWGQGTQVTVSS", "polyreactivity (PSR sort gate)", "high polyreactivity"],
  ["QVQLVESGGGLVQAGCSLRLSCAASGRTFNYYAMGWYRQAPGKERELVAAISVSGVRTYYADSVKGRFTISRDNAKNSVYLQMNSLKPEDTAVYYCAGLYQSVRGYVYWGQGTQVTVSS", "polyreactivity (PSR sort gate)", "high polyreactivity"],
  ["QVQLVESRGGLVQAGGSLRLSCAASGRTFLGYAMGWYRQAPGKERELVAAISYSGSSTYYADSVKGRFTISRDNAKNTVYLQMNSLKPEDTAVYYCAAQFYFLFDYWGQGTQVTVSS", "polyreactivity (PSR sort gate)", "low polyreactivity"],
  ["QVQLVESGGGLVQAGGSLRLSCAASGFIFRYYAMGWSRQAPGKERELVASINSGGSTYYADSVKGRFTISRDNAKNTVYLQMNSLKPEDTAVYYCAVVLQYDWAYEKSYYWGQGTQVTVSS", "polyreactivity (PSR sort gate)", "low polyreactivity"],
  ["QVQLQESGGVQAGGSLRLSCAASGYITRSDVMGSYRQAPGKERELVATINNGTMTYYADSEKGRYTISRDNAKKTVYLQKNSQKPEDTAVHYCAVDQSDTDSLYYWGQGTQVTVSS", "polyreactivity (PSR sort gate)", "low polyreactivity"],
  ["QVQLVESGGGLVQAGGSLRLSCAASGSILTAYAMGWYRQAPGKERELVAAISRGDITKYADSVKGRFTISRDNAKNTVYLQMNRLKPEDTAVYYCAARVPRYSDSTRGRADYYWGQGTQVTVSS", "polyreactivity (PSR sort gate)", "high polyreactivity"]
]}
